# test-system: T1, EsCas13d, nuclease-dead (Eubacterium siraeum, UniProt B0MS50, R295A;H300A;R849A;H854A)
# T1 sequence: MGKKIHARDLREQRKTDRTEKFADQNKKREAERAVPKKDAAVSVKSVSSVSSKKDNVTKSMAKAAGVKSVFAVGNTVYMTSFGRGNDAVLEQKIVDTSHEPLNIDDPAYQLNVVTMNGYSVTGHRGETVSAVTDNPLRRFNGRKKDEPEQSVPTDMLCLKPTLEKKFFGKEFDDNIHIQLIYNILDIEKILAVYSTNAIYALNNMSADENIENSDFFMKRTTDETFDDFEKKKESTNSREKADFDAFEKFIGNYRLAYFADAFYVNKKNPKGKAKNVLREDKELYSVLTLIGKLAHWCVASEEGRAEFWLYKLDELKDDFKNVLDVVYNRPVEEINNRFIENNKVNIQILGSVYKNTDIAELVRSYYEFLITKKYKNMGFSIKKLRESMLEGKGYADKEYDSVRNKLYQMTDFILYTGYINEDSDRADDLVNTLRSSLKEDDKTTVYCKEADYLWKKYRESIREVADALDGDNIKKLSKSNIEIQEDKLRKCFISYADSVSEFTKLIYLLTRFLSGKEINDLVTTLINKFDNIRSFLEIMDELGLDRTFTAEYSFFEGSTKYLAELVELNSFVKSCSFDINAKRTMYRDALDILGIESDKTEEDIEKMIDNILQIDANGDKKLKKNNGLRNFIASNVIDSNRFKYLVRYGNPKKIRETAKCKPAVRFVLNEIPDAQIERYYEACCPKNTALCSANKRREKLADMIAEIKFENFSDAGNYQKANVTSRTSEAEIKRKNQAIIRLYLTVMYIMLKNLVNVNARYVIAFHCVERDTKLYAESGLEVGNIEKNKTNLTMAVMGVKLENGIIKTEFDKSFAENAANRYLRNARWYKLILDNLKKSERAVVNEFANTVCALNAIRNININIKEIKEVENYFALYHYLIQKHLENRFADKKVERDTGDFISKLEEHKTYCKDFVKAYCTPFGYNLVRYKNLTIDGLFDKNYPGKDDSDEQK
# test-details: crRNA (strand 1, pre-loaded); Mg2+; 40 mM Tris-HCl pH 7.5, 150 mM NaCl, 6 mM MgCl2, 1 mM DTT, 0.1% Tween-20, 0.2 mg/ml BSA; 25 C; 10 min per concentration, then washed
# condition-context: tags: His6-TwinStrep-SUMO cleaved; N-terminal SNAP kept (SNAP-Surface 488); label: 3' end held by stalled T7 RNA polymerase
pKd: −log10 of the molar value.
Parameter pKd: see the listing below.
readout-kind: pKd

[[record]]
binder = "target 1 MT 5'PFS UAG 3'PFS AGA (mixed) RNA 1: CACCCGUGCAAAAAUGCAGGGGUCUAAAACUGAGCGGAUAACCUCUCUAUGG RNA 2: GGGAAUGGAUCCACAUCUACGAAUUCUAGCCAUAGAGAGGUUAUCCGCUCAAGAAGAUCGGAAGAGCACACGU"
result_value = 7.52

[[record]]
binder = "target 1 MT 5'PFS CCA 3'PFS CGG (mixed) RNA 1: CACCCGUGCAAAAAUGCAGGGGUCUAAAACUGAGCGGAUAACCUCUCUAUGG RNA 2: GGGAAUGGAUCCACAUCUACGAAUUCCCACCAUAGAGAGGUUAUCCGCUCACGGAGAUCGGAAGAGCACACGU"
result_value = 8.30

[[record]]
binder = "target 1 insA 3' of 2,insG 3' of 2 (mixed) RNA 1: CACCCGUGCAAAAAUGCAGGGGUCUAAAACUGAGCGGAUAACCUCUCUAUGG RNA 2: GGGAAUGGAUCCACAUCUACGAAUUCGUACCAUAGAGAGGUUAUCCGCUCAGACCGAGAUCGGAAGAGCACACGU"
result_value = 7.98

[[record]]
binder = "target 2 MT 5'PFS ACU 3'PFS UAG (mixed) RNA 1: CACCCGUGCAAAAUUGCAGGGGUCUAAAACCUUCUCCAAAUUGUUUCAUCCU RNA 2: GGGAAUGGAUCCACAUCUACGAAUUCACUAGGAUGAAACAAUUUGGAGAAGUAGAGAUCGGAAGAGCACACGU"
result_value = 8.46

[[record]]
binder = "target 1 del3,del11 (mixed) RNA 1: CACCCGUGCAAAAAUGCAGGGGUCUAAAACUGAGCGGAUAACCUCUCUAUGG RNA 2: GGGAAUGGAUCCACAUCUACGAAUUCGUACCAUAGAGAGGUAUCCGCCACCGAGAUCGGAAGAGCACACGU"
result_value = 7.18

[[record]]
binder = "target 2 MT 5'PFS GAC 3'PFS UAC (mixed) RNA 1: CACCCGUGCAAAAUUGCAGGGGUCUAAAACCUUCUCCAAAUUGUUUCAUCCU RNA 2: GGGAAUGGAUCCACAUCUACGAAUUCGACAGGAUGAAACAAUUUGGAGAAGUACAGAUCGGAAGAGCACACGU"
result_value = 7.57

[[record]]
binder = "target 2 MT 5'PFS AAA 3'PFS CAG (mixed) RNA 1: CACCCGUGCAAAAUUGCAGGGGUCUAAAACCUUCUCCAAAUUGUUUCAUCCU RNA 2: GGGAAUGGAUCCACAUCUACGAAUUCAAAAGGAUGAAACAAUUUGGAGAAGCAGAGAUCGGAAGAGCACACGU"
result_value = 8.42

